Experiment: Oral bioavailability in mouse
Type: ADME, organism-based
Conditions: in vivo
EXPERIMENTAL ENDPOINT: bioavailability (%)

1. COc1cc(-c2ncn(C)c2-c2ccc3ccn(C)c3c2)cc(OC)c1OC
2. COc1ccc(-c2c(-c3cc(OC)c(OC)c(OC)c3)ncn2C)cc1N
// query # argmax over bioavailability for candidates 1 and 2 Write the label of whichever entry you select.
// result 2
(2: 89.7%, 1: 24.2%)

---

Assay: The oral Area under the plasma concentration curve(AUC) measured;when administered perorally
Assay type: ADME
EXPERIMENTAL ENDPOINT: AUC (µg·h/mL)

A. COc1ccc(-c2ncn(C)c2-c2cc(OC)c(OC)c(OC)c2)cc1N
B. COc1cc(-c2c(-c3ccc4c(ccn4C)c3)ncn2C)cc(OC)c1OC
C. COc1cc(-c2ncn(C)c2-c2cc(Cl)c3c(ccn3C)c2)cc(OC)c1OC
// query # rank above entries by AUC (max first, min last) Form entry: labels listed in requested order.
// result A, C, B

---

Tested on: HCT-15
Assay: Inhibition of human HCT-15 (human colon adenocarcinoma, MDR positive) cell growth
Format: functional, cell-based
pIC50: −log10 of the molar value.
EXPERIMENTAL ENDPOINT: pIC50

A. COc1ccc(-c2[nH]cnc2-c2cc(OC)c(OC)c(OC)c2)cc1
B. COc1ccc(-c2ncoc2-c2cc(OC)c3c(c2)OCO3)cc1N
// query Between A and B , which one shows the larger pIC50 value? Pick one and reply with its label.
// result A

P. COc1cc(-n2cncc2-c2ccc3[nH]ccc3c2)cc(OC)c1OC
Q. COc1cc(-c2ncoc2-c2ccc3c(ccn3C)c2)cc(OC)c1OC
// query Of P and Q , whose reported pIC50 is the larger number? Your answer should be the label of the entry you select.
// result Q
(Q: 8.13, P: 6.46)

---

System: HCT-15
Test: Inhibition of human HCT-15 (human colon adenocarcinoma, MDR positive) cell growth
Format: functional, cell-based
pIC50: −log10 of the molar value.
EXPERIMENTAL ENDPOINT: pIC50

// query Consider the molecule COc1ccc(-c2[nH]cnc2-c2cc(OC)c(OC)c(OC)c2)cc1F and give its measured pIC50.
// result 8.42

// query Which measured pIC50 value corresponds to COc1ccc(-c2c(-c3cc(OC)c(OC)c(OC)c3)ncn2C)cc1N ?
// result 6.66

// query Form field: reported pIC50 of COc1cc(-c2ncoc2-c2ccc(N(C)C)cc2)cc(OC)c1OC
// result 7.74

A. COc1ccc(-c2ccnn2-c2cc(OC)c(OC)c(OC)c2)cc1N
B. COc1cc(-c2[nH]cnc2-c2ccc(N(C)C)cc2)cc(OC)c1OC
C. COc1ccc(-c2cncn2-c2cc(OC)c(OC)c(OC)c2)cc1O
// query Please list the entries, largest pIC50 first. Respond with an ordered listing of the labels, as requested.
// result B, A, C

---

Test: Bioavailability
Format: ADME, organism-based
Conditions: eutheria, in vivo
EXPERIMENTAL ENDPOINT: bioavailability (%)

a. COc1ccc(-c2[nH]cnc2-c2cc(OC)c(OC)c(OC)c2)cc1N
b. COc1ccc(-c2c(-c3cc(OC)c(OC)c(OC)c3)ncn2C)cc1N
c. COc1cc(-c2[nH]cnc2-c2ccc(N(C)C)cc2)cc(OC)c1OC
d. COc1cc(-c2ncn(C)c2-c2cc(F)c3c(ccn3C)c2)cc(OC)c1OC
e. COc1cc(-c2c(-c3ccc4c(ccn4C)c3)ncn2C)cc(OC)c1OC
// query Put the above entries in order of falling bioavailability. Rank them, then answer with their labels in that order.
// result b, a, d, e, c

---

Experiment: The oral Area under the plasma concentration curve(AUC) measured;when administered as perorally
Assay type: ADME
EXPERIMENTAL ENDPOINT: AUC (ng·h/mL)
Respond numerically; units are ng·h/mL and should not be typed.

// query Field request: AUC | item: COc1ccc(-c2ocnc2-c2cc(OC)c(OC)c(OC)c2)cc1N
// result 12

---

System: NCI-H460
Experiment: Inhibition of human NCI-H460 (human lung large cell carcinoma, MDR negative) cell growth
Type: functional, cell-based
EXPERIMENTAL ENDPOINT: IC50 (µM)

Some solved cases for reference:
// query For the compound shown here, COc1cc(-n2cncc2-c2ccc3c(c2)CCN3C)cc(OC)c1OC , give the reported IC50.
// result 0.15

// query So what's the measured IC50 for this one? COc1ccc(-c2ocnc2-c2cc(OC)c(OC)c(OC)c2)cc1N
// result 0.0092

// query Would you mind telling me what IC50 value was observed for COc1ccc(-c2[nH]cnc2-c2cc(OC)c(OC)c(OC)c2)cc1 ?
// result 0.0072

// query Field request: IC50 | item: COc1cc(-n2cncc2-c2ccc(N(C)C)cc2)cc(OC)c1OC
// result 0.079

// query Endpoint output: IC50 of COc1ccc(-c2cncn2-c2cc(OC)c(OC)c(OC)c2)cc1O . Value?
// result 0.061

// query Could you share which IC50 value was measured for COc1cc(-c2ncoc2-c2ccc3c(ccn3C)c2)cc(OC)c1OC ?
// result 0.012

// query Entry under review: COc1ccc(-c2[nH]cnc2-c2cc(OC)c(OC)c(OC)c2)cc1O . Reported IC50?
// result 0.011

// query What value of measured IC50 is listed for COc1cc(-c2ncn(C)c2-c2cc(Cl)c3c(ccn3C)c2)cc(OC)c1OC ?
// result 0.012

// query Data request, read-out IC50, for COc1ccc(-c2[nH]cnc2-c2cc(OC)c(OC)c(OC)c2)cc1N
// result 0.0085

a. COc1ccc(-c2ncoc2-c2cc(OC)c(OC)c(OC)c2)cc1N
b. COc1ccc(-c2cncn2-c2cc(OC)c(OC)c(OC)c2)cc1N
// query I'm curious whether a or b has the smaller IC50 number. Which is it? Refer to your chosen item by its label in the answer.
// result a

---

Tested on: HCT-15
Test: Inhibition of human HCT-15 (human colon adenocarcinoma, MDR positive) cell growth
Assay type: functional, cell-based
pIC50: −log10 of the molar value.
EXPERIMENTAL ENDPOINT: pIC50

// query What does the record list as pIC50 for COc1cc(-c2ncn(C)c2-c2cc(Cl)c3c(ccn3C)c2)cc(OC)c1OC ?
// result 7.92

I. COc1ccc(-c2cncn2-c2cc(OC)c(OC)c(OC)c2)cc1N
II. COc1cc(-n2cncc2-c2ccc(N)cc2)cc(OC)c1OC
III. COc1cc(-c2[nH]cnc2-c2ccc3ccn(C)c3c2)cc(OC)c1OC
IV. COc1ccc(-c2ocnc2-c2cc(OC)c(OC)c(OC)c2)cc1N
// query I would appreciate it if you could sort these 4 compounds by pIC50, starting from the smallest number. In your reply, arrange the labels in the requested order.
// result II, I, IV, III
(II: 5.14, I: 7.16, IV: 7.96, III: 8.77)

---

Test system: HCT-15
Assay: Inhibition of human HCT-15 (human colon adenocarcinoma, MDR positive) cell growth
Type: functional, cell-based
pIC50: −log10 of the molar value.
EXPERIMENTAL ENDPOINT: pIC50

// query Missing value: pIC50, HCT-15, entry COc1cc(-c2[nH]c(-c3ccoc3)nc2-c2ccc(N(C)C)cc2)cc(OC)c1OC . Fill in?
// result 7.17

// query Item: COc1ccc(-c2[nH]cnc2-c2cc(OC)c(OC)c(OC)c2)cc1N Test system: HCT-15 Read-out: pIC50 Value: ?
// result 8.09

// query Provide the documented pIC50 with HCT-15 as the system for COc1cc(-n2cncc2-c2ccc(N(C)C)cc2)cc(OC)c1OC
// result 7.44

A. COc1cc(-c2c(-c3ccc4c(ccn4C)c3)ncn2C)cc(OC)c1OC
B. COc1ccc(-c2ncn(C)c2-c2cc(OC)c(OC)c(OC)c2)cc1N
// query // max by pIC50 over [ A , B ] Please indicate the selected item by its label.
// result A

a. COc1ccc(-c2ncoc2-c2cc(OC)c(OC)c(OC)c2)cc1N
b. COc1cc(-n2cncc2-c2ccc3c(ccn3C)c2)cc(OC)c1OC
c. COc1cc(-n2cncc2-c2ccc3c(c2)CCN3C)cc(OC)c1OC
d. COc1cc(-c2ncn(C)c2-c2cc(F)c3c(ccn3C)c2)cc(OC)c1OC
// query Order the records, beginning with the lowest pIC50 and ending with the highest. Quick reminder: the answer is the labels in the order asked.
// result c, d, b, a
(c: 7.24, d: 7.57, b: 7.85, a: 8.14)

1. COc1ccc(-c2[nH]cnc2-c2cc(OC)c(OC)c(OC)c2)cc1O
2. COc1cc(-c2ncn(C)c2-c2ccc3ccn(C)c3c2)cc(OC)c1OC
// query Hi there! Just curious which has the higher pIC50 between 1 and 2 . Returns: label corresponding to the selected item.
// result 1
(1: 8.00, 2: 7.70)

A. COc1ccc(-c2nc(C)oc2-c2cc(OC)c(OC)c(OC)c2)cc1O
B. COc1cc(-n2ccnc2-c2ccc(N(C)C)cc2)cc(OC)c1OC
// query A or B : whose pIC50 is greater? Kindly state the label of the option you pick.
// result A

1. COc1cc(-c2nccnc2-c2ccc(N(C)C)cc2)cc(OC)c1OC
2. COc1ccc(-c2ocnc2-c2cc(OC)c(OC)c(OC)c2)cc1O
// query Decide: 1 or 2 , by lowest recorded pIC50. Return value: the label identifying the chosen record.
// result 1
(1: 6.52, 2: 8.66)
